# System Name: TEK (human) (UniProt Q02763)
# Sequence (Q02763 whole entry, looked up): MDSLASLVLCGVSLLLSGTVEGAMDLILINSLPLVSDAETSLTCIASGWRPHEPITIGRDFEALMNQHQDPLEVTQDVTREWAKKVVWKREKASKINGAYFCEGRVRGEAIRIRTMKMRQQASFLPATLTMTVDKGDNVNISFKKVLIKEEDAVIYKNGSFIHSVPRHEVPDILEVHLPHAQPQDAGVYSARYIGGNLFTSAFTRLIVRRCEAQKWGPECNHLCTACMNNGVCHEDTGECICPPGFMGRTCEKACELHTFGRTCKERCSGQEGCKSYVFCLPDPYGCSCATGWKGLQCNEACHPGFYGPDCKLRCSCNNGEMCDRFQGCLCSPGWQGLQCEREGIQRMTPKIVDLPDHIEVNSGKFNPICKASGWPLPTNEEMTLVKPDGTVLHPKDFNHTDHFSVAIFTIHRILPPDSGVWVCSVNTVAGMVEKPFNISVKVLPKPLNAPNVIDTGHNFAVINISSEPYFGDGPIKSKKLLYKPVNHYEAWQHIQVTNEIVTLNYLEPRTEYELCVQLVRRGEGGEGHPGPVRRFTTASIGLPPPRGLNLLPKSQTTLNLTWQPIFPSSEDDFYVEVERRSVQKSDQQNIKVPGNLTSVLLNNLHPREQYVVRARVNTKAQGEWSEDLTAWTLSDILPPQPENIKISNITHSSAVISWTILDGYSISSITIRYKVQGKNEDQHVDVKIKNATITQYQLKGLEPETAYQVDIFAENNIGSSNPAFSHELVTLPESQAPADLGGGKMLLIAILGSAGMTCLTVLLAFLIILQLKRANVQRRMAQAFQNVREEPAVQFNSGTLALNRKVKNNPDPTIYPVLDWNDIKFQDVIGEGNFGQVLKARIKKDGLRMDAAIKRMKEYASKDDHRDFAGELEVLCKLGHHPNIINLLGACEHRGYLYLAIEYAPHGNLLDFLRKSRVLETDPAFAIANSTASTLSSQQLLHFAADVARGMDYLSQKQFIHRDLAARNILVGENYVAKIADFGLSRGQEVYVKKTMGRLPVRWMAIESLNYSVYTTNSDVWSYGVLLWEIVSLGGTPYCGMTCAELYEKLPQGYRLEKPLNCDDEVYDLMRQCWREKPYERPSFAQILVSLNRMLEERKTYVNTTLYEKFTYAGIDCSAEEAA
# Test Method Notes: radiometric filter-binding kinase assay, Kinase HotSpot
# Condition Description: compound 0.5 µM; ATP 10 µM
Measured Metric: residual activity (%)
One number for each entry, in %.

Sample records with residual activity:
CC(C)(C)c1nc2c3ccc(F)cc3c3c(=O)[nH]ccc3c2[nH]1 | 101
CC(C)[C@H](CO)Nc1nc(Nc2cccc(Cl)c2)c2ncn(C(C)C)c2n1 | 93.8
Nc1nc(Nc2ccc(S(N)(=O)=O)cc2)nn1C(=O)c1c(F)cccc1F | 84.2

Proceed to the following item.
Param item = Cc1ccc(NC(=O)c2ccc(CN3CCN(C)CC3)cc2)cc1Nc1nc(-c2cccnc2)cs1 ; retrieve measured residual activity. 97.2
